- Assay Summary: Half life in male ICR mouse at 1 mg/kg, iv measured up to 24 hrs by LC-MS/MS analysis
- Format: ADME, organism-based
- Condition Notes: in vivo
Readout Label: half-life

The reported half-life of the compound "O=C1C(Cl)=C(NCCc2cccc(F)c2)C(=O)c2ncccc21" was 12 min

====

Examples of compounds with documented viability at 6 µM follow.
- Assay Summary: Cytotoxicity against HEK293T cells assessed as cell survival rate at 6 uM incubated for 3 to 6 days by CCK8 assay relative to control
- Type: toxicity, cell-based, HEK-293T
- Condition Notes: human, time 3-6 day, read-out: Survival
API: value field is a number in %; no unit string.

The measured viability at 6 µM associated with "Cc1ccc(CCNC2=C(Cl)C(=O)c3ncccc3C2=O)cc1" reads 21.2

So, "CC(C)(C)OC(=O)N1CCC(Cc2ccc(NC3=C(Cl)C(=O)c4ncccc4C3=O)cc2)CC1" ? Its viability at 6 µM was 2.4

Per the record, "CC(C)(C)OC(=O)N1CC2(CC(NC3=C(Cl)C(=O)c4ncccc4C3=O)C2)C1" has viability at 6 µM of 13.8
